- MEASUREMENT_PROTOCOL: Pharmacokinetics after intraperitoneal administration in female SCID mice (plasma, LC-MS/MS, non compartmental analysis)
- Assay type: in vivo
- EXPERIMENTAL_PARAMETERS: mouse, 20 mg/kg IP, plasma, log-trapezoidal rule, extrapolated to infinity
QUANTITY_NAME: AUC(0-inf) (ng·h/mL)
Respond with the bare value in ng·h/mL.

Completed entries (count: 3):
MOLECULE	AUC(0-inf) [ng·h/mL]
N#C/N=C(\NC/C=C/CCC1CCN(C(=O)c2ccco2)CC1)Nc1ccncc1 [FEI-199]	5230
O=C(/C=C/c1cccnc1)NCCCCC1CCN(C(=O)c2ccccc2)CC1 [FK866, reference compound]	20800
O=C(/C=C/c1cccnc1F)NCCCCC1CCN(C(=O)c2ccccc2)CC1 [VAL22-2]	8470

Now for another entry.
Exercise: I am curious: what AUC(0-inf) value has been reported for O=C(/C=C/c1cccnc1F)NCCCCC1CCN(C(=O)c2cccs2)CC1 [MPM-07] ?
Solution: 5200
